# Study Target: truncated PI3Kα (p110α/iSH2 p85α) (Homo sapiens (Human), UniProt P42336)
# Sequence (P42336 whole entry, the tested form may be a part): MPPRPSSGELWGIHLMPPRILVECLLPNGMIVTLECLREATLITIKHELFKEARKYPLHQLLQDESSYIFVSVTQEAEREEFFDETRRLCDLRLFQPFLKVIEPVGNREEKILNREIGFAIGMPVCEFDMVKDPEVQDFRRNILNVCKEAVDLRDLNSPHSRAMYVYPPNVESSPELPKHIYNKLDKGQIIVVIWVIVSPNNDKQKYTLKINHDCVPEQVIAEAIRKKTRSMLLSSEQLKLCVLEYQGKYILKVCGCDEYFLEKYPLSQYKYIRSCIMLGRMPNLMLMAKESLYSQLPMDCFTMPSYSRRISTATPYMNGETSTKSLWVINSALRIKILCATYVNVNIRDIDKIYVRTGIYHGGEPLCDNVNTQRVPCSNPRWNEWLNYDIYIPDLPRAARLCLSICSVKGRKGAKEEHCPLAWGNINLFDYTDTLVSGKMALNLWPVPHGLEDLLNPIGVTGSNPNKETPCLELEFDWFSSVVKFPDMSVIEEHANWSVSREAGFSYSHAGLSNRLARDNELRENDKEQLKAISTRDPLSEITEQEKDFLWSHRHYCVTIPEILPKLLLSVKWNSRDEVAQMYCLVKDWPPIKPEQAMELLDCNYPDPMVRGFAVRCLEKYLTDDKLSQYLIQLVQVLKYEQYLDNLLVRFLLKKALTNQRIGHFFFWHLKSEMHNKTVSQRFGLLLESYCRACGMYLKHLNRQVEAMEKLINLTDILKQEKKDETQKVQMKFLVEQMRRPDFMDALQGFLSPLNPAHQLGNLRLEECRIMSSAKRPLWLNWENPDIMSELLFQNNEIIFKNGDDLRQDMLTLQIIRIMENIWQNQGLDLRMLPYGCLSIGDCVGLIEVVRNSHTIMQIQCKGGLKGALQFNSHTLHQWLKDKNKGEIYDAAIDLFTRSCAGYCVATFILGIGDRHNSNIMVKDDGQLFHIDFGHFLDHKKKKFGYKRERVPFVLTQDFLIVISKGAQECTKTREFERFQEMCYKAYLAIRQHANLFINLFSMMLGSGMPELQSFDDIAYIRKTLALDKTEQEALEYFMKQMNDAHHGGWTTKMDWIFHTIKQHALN
# Method Description: PI3KA_Act fluorescence polarization kinase assay (Ki)
# Assay type: biochemical
# Assay Conditions: 1 mM ATP
Criterion: PI3KA_Act Ki strictly under 0.4 nM. Met: label 1. Not met: label 0.

For orientation, consider the following solved cases.
Exercise: Threshold test, PI3KA_Act Ki < 0.4 nM: CCC(=O)NCC(=O)N1CC(N2CCc3c(-c4cnc(N)nc4)nc(N4CCOC[C@@H]4C)nc32)C1 [Example 457]
Key: label 0

Exercise: Cool, now C[C@H]1COCCN1c1nc(-c2cnc(N)nc2)c2c(n1)N([C@H]1CCN(C(=O)OC3COC3)C1)CC2 [Example 156]
Key: label 1

Continuing:
Exercise: Threshold test, PI3KA_Act Ki < 0.4 nM: CN1CCC1(C)C(=O)N1CC[C@](C)(N2CCc3c(-c4cnc(N)nc4)nc(N4CCOCC4)nc32)C1 (stereo partly drawn) [Example 355]
Key: label 1

Exercise: Cool, now C[C@]1(N2CCc3c(-c4cnc(N)nc4)nc(N4CCOCC4)nc32)CCN(C(=O)[C@]2(C)CCN2)C1.Cl [Example 350]
Key: label 1

Exercise: Cool, now CNS(=O)(=O)NCCOC(=O)N1CC(N2CCc3c(-c4cnc(N)nc4)nc(N4CCOCC4)nc32)C1 [Example 148]
Key: label 1

Exercise: Cool, now C[C@]1(N2CCc3c(-c4cnc(N)nc4)nc(N4CCOCC4)nc32)CCN(C(=O)C2(N)CCC2)C1 [Example 346]
Key: label 1

---

# Study Target: truncated PI3Kα (p110α/iSH2 p85α) (Homo sapiens (Human))
# Method Description: PI3KA_Act fluorescence polarization kinase assay (Ki)
# Assay type: biochemical
# Assay Conditions: 1 mM ATP
The entries below come with measured PI3KA_Act Ki values attached.
Write down the numeric answer in nM and omit the unit.

Exercise: Field request: PI3KA_Act Ki | item: C[C@@H]1CNC[C@@]1(C)N1CCc2c(-c3cnc(N)nc3)nc(N3CCOC[C@@H]3C)nc21.Cl
Key: 0.106

Exercise: Cool, now CNS(=O)(=O)O[C@H]1C[C@@H](N2CCc3c(-c4cnc(N)nc4)nc(N4CCOCC4)nc32)C1
Key: 0.079

Continuing:
Exercise: Field request: PI3KA_Act Ki | item: CC(C(N)=O)C(=O)N1CC[C@](C)(N2CCc3c(-c4cnc(N)nc4)nc(N4CCOCC4)nc32)C1 (single isomer, unassigned) [Example 316]
Key: 0.019

---

The entries below come with measured pKi values attached.
# Study Target: truncated PI3Kα (p110α/iSH2 p85α) (Homo sapiens (Human))
# Method Description: PI3KA_Act fluorescence polarization kinase assay (Ki)
# Assay Conditions: 1 mM ATP
# Description: 2) p110α-iSH2 p85α Complex (Full Length p110α and p85α iSH2)(“PI3KA_Act”) […] The biochemical assays of kinase activity of full-length PI3Kα (full-length p110α/p85a) or truncated PI3Kα (p110α/iSH2 p85a) were conducted using a fluorescence polarization format similar to the procedure of Yuan J., et al., (2011) “PF-04691502, a Potent and Selective Oral Inhibitor of PI3K and mTOR Kinases with Antitumor Activity”, Mol Cancer Ther. 10, 2189-2199. […]
Counter-ions that a name gives are not always drawn.
Entry type: numeric. Quantity: pKi, the -log10 of concentration in molar units.

Exercise: Field request: pKi | item: C[C@H]1COCCN1c1nc(-c2cnc(N)nc2)c2c(n1)N([C@H]1[C@@H]3CN[C@H]1C3)CC2 [Example 525, hydrochloride]
Key: 8.35

Continue with the compound presented below.
Exercise: Field request: pKi | item: [2H]C1([2H])CN(c2nc(-c3cnc(N)nc3)c3c(n2)N([C@@]2(C)CCN(C(=O)C(C)(C)NC(=O)OC(C)(C)C)C2)CC3)CC([2H])([2H])O1
Key: 9.29
